Source listed as PubChem BioAssay (NCI).

Tested on: SK-MEL-28 melanoma
methodDescription: NCI-60 one-dose screen, 48 h (100 = growth as untreated, 0 = no growth, -100 = all killed)
testContext: 10 µM unless noted
Compounds without any hit were thinned out: in the full panel of roughly 83,000, 20% have a hit.
Returns one of Y or N; Y when growth is >= 70%.

INSERT INTO assay_data (smilesnotation, classname) VALUES
  ('Cc1ccc(Sc2sc(-c3ccccc3)nc2[P+](c2ccccc2)(c2ccccc2)c2ccccc2)cc1', 'N'),
  ('CC[C@H](CC[C@@H](C)[C@H]1CC[C@H]2[C@@H]3/C(=C/c4cccnc4)C(=O)C4=CC(=O)CC[C@]4(C)[C@H]3CC[C@]12C)C(C)C', 'Y'),
  ('CC(=O)Oc1ccccc1C(=O)/C=C/c1cccc([N+](=O)[O-])c1', 'Y'),
  ('Cc1ccc(N(CC(=O)Nc2ccc(S(=O)(=O)N3CCC(N4CCCC4)CC3)cc2)S(=O)(=O)c2ccc(Cl)cc2)cc1', 'N'),
  ('N#Cc1c(-c2ccc(O)cc2)c2c(N)nn(-c3ccccc3)c2[nH]c1=O', 'Y'),
  ('O=C1C(=O)c2ccccc2C(O)=C1CCCc1ccc(C2CCCCC2)cc1', 'N'),
  ('CCCNc1nc(N(C)O)nc(N(C)O)n1', 'N');
